Experiment: BTK FAC plasma stability assay, rat plasma
Format: in vitro ADME
Details: 24 h
quantity-measured: % Release of degrader after 24 h rat (%)

molecule: CCCCCCCCCCCN(C(=O)CCCCCCCCCC(=O)O)C(CCC(=O)NCCOCCOCCOCCOCCOCCOCCOCCOCCOCCOCCOCCOCCC(=O)NCC(=O)NCN(C(=O)c1ccc(C(C)(C)O)cc1F)c1cc(F)cc(-c2ncnc3[nH]c(-c4ccc(CCN5CCC6(CC5)CCN(C(=O)c5ccc(OC)c(N7CCC(=O)NC7=O)c5)CC6)cc4)cc23)c1C)C(=O)O (stereo not drawn)
units-symbol: %
result-number: 0
//
molecule: CCCCCCCCCCCN(C(=O)CCCCCCCCCC(=O)O)C(CCC(=O)NCCOCCOCCOCCOCCOCCOCCOCCOCCOCCOCCOCCOCCC(=O)N1CCC(F)(C(=O)OC(C)(C)c2ccc(C(=O)Nc3cc(F)cc(-c4ncnc5[nH]c(-c6ccc(CCN7CCC8(CC7)CCN(C(=O)c7ccc(OC)c(N9CCC(=O)NC9=O)c7)CC8)cc6)cc45)c3C)c(F)c2)CC1)C(=O)O (stereo not drawn)
units-symbol: %
result-number: 39.4
//
molecule: CCCCCCCCCCCN(C(=O)CCCCCCCCCC(=O)O)C(CCC(=O)NCCOCCOCCOCCOCCOCCOCCOCCOCCOCCOCCOCCOCCC(=O)N[C@@H](C)C(=O)OC(C)(C)c1ccc(C(=O)Nc2cc(F)cc(-c3ncnc4[nH]c(-c5ccc(CCN6CCC7(CC6)CCN(C(=O)c6ccc(OC)c(N8CCC(=O)NC8=O)c6)CC7)cc5)cc34)c2C)c(F)c1)C(=O)O (stereo partly drawn)
units-symbol: %
result-number: 11
//
molecule: CCCCCCCCCCCN(C(=O)CCCCCCCCCC(=O)O)[C@@H](CCC(=O)N(CCNC(=O)CCOCCOCCOCCOCCOCCOCCOCCOCCOCCOCCOCCOC)CC(=O)OC(C)(C)c1ccc(C(=O)Nc2cc(F)cc(-c3ncnc4[nH]c(-c5ccc(CCN6CCC7(CC6)CCN(C(=O)c6ccc(OC)c(N8CCC(=O)NC8=O)c6)CC7)cc5)cc34)c2C)c(F)c1)C(=O)O
units-symbol: %
result-number: 1.5
//
molecule: CCCCCCCCCCCN(C(=O)CCCCCCCCCC(=O)O)C(CCC(=O)NCCOCCOCCOCCOCCOCCOCCOCCOCCOCCOCCOCCOCCC(=O)NCC(=O)NCn1c(-c2ccc(CCN3CCC4(CC3)CCN(C(=O)c3ccc(OC)c(N5CCC(=O)NC5=O)c3)CC4)cc2)cc2c(-c3cc(F)cc(NC(=O)c4ccc(C(C)(C)O)cc4F)c3C)ncnc21)C(=O)O (stereo not drawn)
units-symbol: %
result-number: 0.1
//
molecule: CCCCCCCCCCCN(C(=O)CCCCCCCCCC(=O)O)[C@@H](CCC(=O)NCCOCCOCCOCCOCCOCCOCCOCCOCCOCCOCCOCCOCCC(=O)N(CCC(=O)OC(C)(C)c1ccc(C(=O)Nc2cc(F)cc(-c3ncnc4[nH]c(-c5ccc(CCN6CCC7(CC6)CCN(C(=O)c6ccc(OC)c(N8CCC(=O)NC8=O)c6)CC7)cc5)cc34)c2C)c(F)c1)CC(=O)O)C(=O)O
units-symbol: %
result-number: 7.2
//
molecule: COCCOCCOCCOCCOCCOCCOCCOCCOCCOCCOCCOCCC(=O)NCC(=O)OC(C)(C)c1ccc(C(=O)Nc2cc(F)cc(-c3ncnc4[nH]c(-c5ccc(CCN6CCC7(CC6)CCN(C(=O)c6ccc(OC)c(N8CCC(=O)NC8=O)c6)CC7)cc5)cc34)c2C)c(F)c1
units-symbol: %
result-number: 42.2
//
molecule: CCCCCCCCCCCN(C(=O)CCCCCCCCCC(=O)O)C(CCC(=O)NCCOCCOCCOCCOCCOCCOCCOCCOCCOCCOCCOCCOCCC(=O)N[C@H](C)C(=O)OC(C)(C)c1ccc(C(=O)Nc2cc(F)cc(-c3ncnc4[nH]c(-c5ccc(CCN6CCC7(CC6)CCN(C(=O)c6ccc(OC)c(N8CCC(=O)NC8=O)c6)CC7)cc5)cc34)c2C)c(F)c1)C(=O)O (stereo partly drawn)
units-symbol: %
result-number: 2.5
//
molecule: CCCCCCCCCCCN(C(=O)CCCCCCCCCC(=O)O)C(CCC(=O)NCCOCCOCCOCCOCCOCCOCCOCCOCCOCCOCCOCCOCCOCCOCCOCCOCCC(=O)NCC(=O)OC(C)(C)c1ccc(C(=O)Nc2cc(F)cc(-c3ncnc4[nH]c(-c5ccc(CCN6CCC7(CC6)CCN(C(=O)c6ccc(OC)c(N8CCC(=O)NC8=O)c6)CC7)cc5)cc34)c2C)c(F)c1)C(=O)O (stereo not drawn)
units-symbol: %
result-number: 22.4
//
molecule: CCCCCCCCCCCN(C(=O)CCCCCCCCCC(=O)O)[C@H](CCC(=O)NCCOCCOCCOCCOCCOCCOCCOCCOCCOCCOCCOCCOCCC(=O)NCC(=O)OC(C)(C)c1ccc(C(=O)Nc2cc(F)cc(-c3ncnc4[nH]c(-c5ccc(CCN6CCC7(CC6)CCN(C(=O)c6ccc(OC)c(N8CCC(=O)NC8=O)c6)CC7)cc5)cc34)c2C)c(F)c1)C(=O)O
units-symbol: %
result-number: 9
//
molecule: CCCCCCCCCCCN(C(=O)CCCCCCCCCC(=O)O)C(CCC(=O)NCCOCCOCCOCCOCCOCCOCCOCCOCCOCCOCCOCCOCCOCCOCCOCCOCCOCCOCCOCCOCCOCCOCCOCCOCCC(=O)NCC(=O)OC(C)(C)c1ccc(C(=O)Nc2cc(F)cc(-c3ncnc4[nH]c(-c5ccc(CCN6CCC7(CC6)CCN(C(=O)c6ccc(OC)c(N8CCC(=O)NC8=O)c6)CC7)cc5)cc34)c2C)c(F)c1)C(=O)O (stereo not drawn)
units-symbol: %
result-number: 6.1
//
molecule: CCCCCCCCCCCN(C(=O)CCCCCCCCCC(=O)O)C(CCC(=O)NCCOCCOCCOCCOCCOCCOCCOCCOCCOCCOCCOCCOCCC(=O)NCCC(=O)OC(C)(C)c1ccc(C(=O)Nc2cc(F)cc(-c3ncnc4[nH]c(-c5ccc(CCN6CCC7(CC6)CCN(C(=O)c6ccc(OC)c(N8CCC(=O)NC8=O)c6)CC7)cc5)cc34)c2C)c(F)c1)C(=O)O (stereo not drawn)
units-symbol: %
result-number: 2
